# target.desc: unlabeled human VEGF (ELISA coat) (human, UniProt P15692-4 27-191, limits assumed)
# Sequence (P15692 other isoform, or with tags, fused parts or gaps limits assumed): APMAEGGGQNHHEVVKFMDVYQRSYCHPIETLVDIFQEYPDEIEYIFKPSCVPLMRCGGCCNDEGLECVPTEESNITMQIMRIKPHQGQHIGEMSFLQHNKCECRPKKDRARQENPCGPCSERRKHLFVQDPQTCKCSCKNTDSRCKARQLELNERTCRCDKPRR
# assay.procedure: ELISA 1 hr, EC50 WT/EC50 mutant
value.type: ELISA 1hr binding (fold)
One number for each entry, in fold.

Look over these answered cases.
binder: S100a T (anti-VEGF IgG) (antibody, V domains shown, copies: 2 + 2) VH: EVQLVESGGGLVQPGGSLRLSCAASGYTFTNYGMNWVRQAPGKGLEWVGWINTYTGEPTYAADFKRRFTFSLDTSKSTAYLQMNSLRAEDTAVYYCAKYPHYYGTSHWYFDVWGQGTLVTVSS VL: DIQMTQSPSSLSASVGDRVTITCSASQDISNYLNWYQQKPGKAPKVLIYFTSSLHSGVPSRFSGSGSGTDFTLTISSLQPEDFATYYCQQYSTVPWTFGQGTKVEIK
ELISA 1hr binding (fold): 2.3
--
binder: H97 F (anti-VEGF IgG) (antibody, V domains shown, copies: 2 + 2) VH: EVQLVESGGGLVQPGGSLRLSCAASGYTFTNYGMNWVRQAPGKGLEWVGWINTYTGEPTYAADFKRRFTFSLDTSKSTAYLQMNSLRAEDTAVYYCAKYPFYYGSSHWYFDVWGQGTLVTVSS VL: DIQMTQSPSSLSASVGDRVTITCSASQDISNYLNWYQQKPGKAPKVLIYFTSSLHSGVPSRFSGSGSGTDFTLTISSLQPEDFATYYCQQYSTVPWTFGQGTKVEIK
ELISA 1hr binding (fold): 2
--
binder: 92 (antibody, human IgG1, V domains shown) VH: EVQLVESGGGLVQPGGSLRLSCAASGYTFTNYGMNWVRQAPGKGLEWVGWINTYTGEPTYAADFKRRFTFSLDTSKSTAYLQMNSLRAEDTAVYYCAKYPPYYGSSHWYFDVWGQGTLVTVSS VL: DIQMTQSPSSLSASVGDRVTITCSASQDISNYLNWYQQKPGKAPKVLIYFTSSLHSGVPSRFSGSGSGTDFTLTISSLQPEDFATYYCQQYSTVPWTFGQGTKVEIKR
ELISA 1hr binding (fold): 2.7
--
binder: N31 W (anti-VEGF IgG) (antibody, V domains shown, copies: 2 + 2) VH: EVQLVESGGGLVQPGGSLRLSCAASGYTFTWYGMNWVRQAPGKGLEWVGWINTYTGEPTYAADFKRRFTFSLDTSKSTAYLQMNSLRAEDTAVYYCAKYPHYYGSSHWYFDVWGQGTLVTVSS VL: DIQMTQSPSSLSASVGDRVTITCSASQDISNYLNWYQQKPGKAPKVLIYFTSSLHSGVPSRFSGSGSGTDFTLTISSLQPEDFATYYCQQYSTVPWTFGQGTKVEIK
ELISA 1hr binding (fold): 2.1

ELISA 1hr binding in this record for N31 L (anti-VEGF IgG) (antibody, V domains shown, copies: 2 + 2) VH: EVQLVESGGGLVQPGGSLRLSCAASGYTFTLYGMNWVRQAPGKGLEWVGWINTYTGEPTYAADFKRRFTFSLDTSKSTAYLQMNSLRAEDTAVYYCAKYPHYYGSSHWYFDVWGQGTLVTVSS VL: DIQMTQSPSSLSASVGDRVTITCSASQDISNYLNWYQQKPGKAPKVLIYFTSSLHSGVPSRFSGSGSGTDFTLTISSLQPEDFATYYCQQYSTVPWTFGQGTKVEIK : 1.1
